targetOfAssay: human IDO1 protein (Homo sapiens, UniProt P14902)
Sequence (P14902 whole entry): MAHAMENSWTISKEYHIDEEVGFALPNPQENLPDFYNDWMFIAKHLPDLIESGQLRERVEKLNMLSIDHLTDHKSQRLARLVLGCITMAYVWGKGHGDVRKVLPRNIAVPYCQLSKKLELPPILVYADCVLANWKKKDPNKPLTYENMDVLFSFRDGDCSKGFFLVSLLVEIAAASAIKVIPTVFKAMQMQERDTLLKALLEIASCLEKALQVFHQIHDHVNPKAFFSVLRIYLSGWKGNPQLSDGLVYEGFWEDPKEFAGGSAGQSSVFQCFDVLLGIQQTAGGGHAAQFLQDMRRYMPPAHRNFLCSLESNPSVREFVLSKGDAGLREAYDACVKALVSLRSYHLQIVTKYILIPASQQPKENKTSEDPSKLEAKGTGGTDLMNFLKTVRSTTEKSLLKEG
test: Activity in HEK293 cells highly expressing human IDO1 protein
conditionParameters: HEK293-IDO cells, tryptophan 16 mg/L, 24 hours, absorption at 480 nm; read-out: IC50 (HEK293 cell)
measuredQuantity: IC50

In [3]: df
Out[3]:
                                   compound  measuredquantity        result
0  COCCOc1ccc(NC(=O)[C@@H]2C[C@]23CC[C@H](c2ccnc4cc(C)c(F)cc42)CC3)cc1 (single isomer, unassigned)              IC50      > 100 nM
1  O=C(Nc1ccc(Cl)nc1)C1CC12CCC(c1ccnc3ccc(F)cc13)CC2 (centres unmarked)              IC50  10 to 100 nM
2  O=C(Nc1ccc(Cl)cc1)C1CC12CCC(c1ccnc3cc4c(cc13)OCO4)CC2 (centres unmarked)              IC50      > 100 nM
3  Cc1cc2nccc([C@H]3CC[C@@]4(CC3)C[C@@H]4C(=O)Nc3ccc(Cl)cc3)c2cc1F (single isomer, unassigned)              IC50  0.1 to 10 nM
4  Cc1cc2nccc(C3CCC4(CC3)CC4C(=O)Nc3ccc(Cl)cc3)c2cc1F (centres unmarked)              IC50  0.1 to 10 nM
5  N#CC1(C(=O)Nc2ccc(Cl)cc2)CC12CCC(c1ccnc3ccc(F)cc13)CC2 (centres unmarked)              IC50      > 100 nM
6  CC1(C(=O)Nc2ccc(Cl)cc2)CC12CCC(c1ccnc3ccc(F)cc13)CC2 (centres unmarked)              IC50      > 100 nM
7  O=C(NCc1ccc(Cl)cc1)C1CC12CCC(c1ccnc3ccc(F)cc13)CC2 (centres unmarked)              IC50      > 100 nM

====

targetOfAssay: UniProtKB P14902
test: Activity in HEK293 cells highly expressing human IDO1 protein
conditionParameters: HEK293-IDO cells, tryptophan 16 mg/L, 24 hours, absorption at 480 nm; read-out: IC50 (HEK293 cell)
measuredQuantity: IC50

                                    compound        result
 0  O=C(Nc1ccc(F)cc1)C1CC12CCC(c1ccnc3ccc(F)cc13)CC2 (centres unmarked)  10 to 100 nM
 1  Cc1cc2nccc(C3CCC4(CC3)CC4C(=O)Nc3cncc(Cl)c3)c2cc1F (centres unmarked)      > 100 nM
 2  O=C(Nc1ccc(Cl)cc1)C1CC12CCC(c1ccnc3ccc(F)cc13)CC2 (centres unmarked)  10 to 100 nM
 3  COCCOc1ccc(NC(=O)C2CC23CCC(c2ccnc4cc(C)c(F)cc24)CC3)cc1 (centres unmarked)  10 to 100 nM
 4  COc1cc2nccc(C3CCC4(CC3)CC4C(=O)Nc3ccc(Cl)cc3)c2cc1F (centres unmarked)  0.1 to 10 nM
 5  COCCOc1ccc(NC(=O)C2CC23CCC(c2ccnc4cc(OC)c(OC)cc24)CC3)cc1 (centres unmarked)  10 to 100 nM
 6  O=C(Nc1ccc(Cl)c(F)c1)C1CC12CCC(c1ccnc3ccc(F)cc13)CC2 (centres unmarked)  10 to 100 nM
 7  O=C(Nc1ccc(Cl)cc1)[C@@H]1CC12CCC(c1ccnc3ccc(F)cc13)CC2 (single isomer, unassigned) [Compound 10b]      > 100 nM
 8  O=C(NCCc1ccc(Cl)cc1)C1CC12CCC(c1ccnc3ccc(F)cc13)CC2 (centres unmarked)      > 100 nM
 9  Cc1cc2nccc(C3CCC4(CC3)CC4C(=O)Nc3ccc(OCCO)cc3)c2cc1F (centres unmarked)      > 100 nM
10  O=C(Nc1ccc(C(F)(F)F)cc1)C1CC12CCC(c1ccnc3ccc(F)cc13)CC2 (centres unmarked)  10 to 100 nM
11  Cc1cc2nccc(C3CCC4(CC3)CC4C(=O)Nc3ccnc(Cl)c3)c2cc1F (centres unmarked)      > 100 nM
12  O=C(Nc1ccc(Cl)cc1)C1CC12CCC(c1ccnc3cc(CO)c(F)cc13)CC2 (centres unmarked)  10 to 100 nM
13  O=C(Nc1ccc(Cl)s1)C1CC12CCC(c1ccnc3ccc(F)cc13)CC2 (centres unmarked)  10 to 100 nM
14  O=C(Nc1ccc(Cl)cn1)C1CC12CCC(c1ccnc3ccc(F)cc13)CC2 (centres unmarked)  10 to 100 nM
15  O=C(Nc1ccc(Cl)cc1)C1CC12CCC(c1ccnc3cc(F)c(F)cc13)CC2 (centres unmarked)  10 to 100 nM
16  COC(=O)COc1ccc(NC(=O)C2CC23CCC(c2ccnc4cc(C)c(F)cc24)CC3)cc1 (centres unmarked)      > 100 nM

====

Parameter: IC50. Scope: all listed entries.
System: Hela cells
test: Activity in Hela cells (interferon-γ induced, kynurenine readout with Ehrlich's reagent)
Assay type: cell-based
conditionParameters: Homo sapiens, interferon-γ 50 ng/mL, tryptophan 16 mg/L, 48 hours, absorption at 480 nm
measuredQuantity: IC50

>>> df
                                   compound  measuredquantity        result
0  Cc1ccc(NC(=O)C2COC23CCC(c2ccnc4ccc(F)cc24)CC3)cc1 (centres unmarked)              IC50  10 to 100 nM
1  COCCOc1ccc(NC(=O)[C@@H]2C[C@]23CC[C@H](c2ccnc4cc(C)c(F)cc42)CC3)cc1 (single isomer, unassigned)              IC50      > 100 nM
2  N#Cc1ccc(NC(=O)C2CC23CCC(c2ccnc4ccc(F)cc24)CC3)cc1 (centres unmarked)              IC50  10 to 100 nM
3  N#CC1(C(=O)Nc2ccc(Cl)cc2)CC12CCC(c1ccnc3ccc(F)cc13)CC2 (centres unmarked)              IC50      > 100 nM
4  O=S(=O)(Nc1ccc(F)cc1)C1CC12CCC(c1ccnc3ccc(F)cc13)CC2 (centres unmarked)              IC50  0.1 to 10 nM
5  COC(=O)COc1ccc(NC(=O)C2CC23CCC(c2ccnc4cc(C)c(F)cc24)CC3)cc1 (centres unmarked)              IC50      > 100 nM
6  O=C(Nc1ccc(Br)cc1)C1CC12CCC(c1ccnc3ccc(F)cc13)CC2 (centres unmarked)              IC50  0.1 to 10 nM
7  CN1CC(C(=O)Nc2ccc(Br)cc2)C2(CCC(c3ccnc4ccc(F)cc34)CC2)C1 (centres unmarked)              IC50      > 100 nM

====

Tested on: Hela cells
test: Activity in Hela cells (interferon-γ induced, kynurenine readout with Ehrlich's reagent)
Assay type: cell-based
conditionParameters: Homo sapiens, interferon-γ 50 ng/mL, tryptophan 16 mg/L, 48 hours, absorption at 480 nm
pIC50: −log10 of the molar value.
measuredQuantity: pIC50

                                    compound  targetofassay         result
 0  Cc1cc2nccc([C@H]3CC[C@@]4(CC3)C[C@@H]4C(=O)Nc3ccc(Cl)cc3)c2cc1F (single isomer, unassigned) [Compound 92]     Hela cells  8.00 to 10.00
 1  Cc1cc2nccc(C3CCC4(CC3)CC4C(=O)Nc3ccc(OCCO)cc3)c2cc1F (stereo not drawn) [Compound 112]     Hela cells   7.00 to 8.00
 2  CN1CC(C(=O)Nc2ccc(C(F)(F)F)cc2)C2(CCC(c3ccnc4ccc(F)cc34)CC2)C1 (stereo not drawn) [Compound 89]     Hela cells         < 7.00
 3  O=C(Nc1ccc(Cl)cn1)C1CC12CCC(c1ccnc3ccc(F)cc13)CC2 (stereo not drawn) [Compound 8]     Hela cells   7.00 to 8.00
 4  O=C(Nc1ccc(Cl)cc1)C1CC12CCC(c1ccnc3cc4c(cc13)OCCO4)CC2 (stereo not drawn) [Compound 103]     Hela cells         < 7.00
 5  O=S(=O)(Nc1ccc(Cl)cc1)C1CC12CCC(c1ccnc3ccc(F)cc13)CC2 (stereo not drawn) [Compound 14]     Hela cells  8.00 to 10.00
 6  O=C(Nc1ccc(Cl)cc1)C1CC12CCC(c1ccnc3cc(CO)c(F)cc13)CC2 (stereo not drawn) [Compound 114]     Hela cells  8.00 to 10.00
 7  Cc1cc2nccc(C3CCC4(CC3)CC4C(=O)Nc3ccc(Cl)c(F)c3)c2cc1F (stereo not drawn) [Compound 86]     Hela cells  8.00 to 10.00
 8  Cc1cc2nccc(C3CCC4(CC3)CC4C(=O)Nc3ccc(Cl)cc3)c2cc1F (stereo not drawn) [Compound 9]     Hela cells  8.00 to 10.00
 9  O=C(NCCc1ccc(Cl)cc1)C1CC12CCC(c1ccnc3ccc(F)cc13)CC2 (stereo not drawn) [Compound 4]     Hela cells         < 7.00
10  Cc1cc2nccc([C@H]3CC[C@@]4(CC3)C[C@H]4C(=O)Nc3ccc(Cl)cc3)c2cc1F (single isomer, unassigned) [Compound 93]     Hela cells         < 7.00
11  COCc1cc2nccc(C3CCC4(CC3)CC4C(=O)Nc3ccc(Cl)cc3)c2cc1F (stereo not drawn) [Compound 115]     Hela cells  8.00 to 10.00
12  N#Cc1cc2nccc(C3CCC4(CC3)CC4C(=O)Nc3ccc(Cl)cc3)c2cc1F (stereo not drawn) [Compound 102]     Hela cells  8.00 to 10.00
13  O=C(Nc1ccc(C(F)(F)F)cc1)C1COC12CCC(c1ccnc3ccc(F)cc13)CC2 (stereo not drawn) [Compound 52]     Hela cells   7.00 to 8.00
14  N#Cc1ccc(NC(=O)C2COC23CCC(c2ccnc4ccc(F)cc24)CC3)cc1 (stereo not drawn) [Compound 55]     Hela cells   7.00 to 8.00
15  Cc1cc2nccc(C3CCC4(CC3)CC4C(=O)Nc3ccc(F)cc3)c2cc1F (stereo not drawn) [Compound 80]     Hela cells  8.00 to 10.00
16  O=C(Nc1ccc(Cl)s1)C1CC12CCC(c1ccnc3ccc(F)cc13)CC2 (stereo not drawn) [Compound 13]     Hela cells   7.00 to 8.00
17  O=C(Nc1ccc(Cl)nc1)C1CC12CCC(c1ccnc3ccc(F)cc13)CC2 (stereo not drawn) [Compound 7]     Hela cells   7.00 to 8.00
18  O=C(Nc1ccc(Cl)c(F)c1)C1CC12CCC(c1ccnc3ccc(F)cc13)CC2 (stereo not drawn) [Compound 12]     Hela cells   7.00 to 8.00
19  CN1CC(C(=O)Nc2ccc(Cl)cc2)C2(CCC(c3ccnc4ccc(F)cc34)CC2)C1 (stereo not drawn) [Compound 87]     Hela cells         < 7.00
20  COc1cc2nccc([C@H]3CC[C@@]4(CC3)C[C@@H]4C(=O)Nc3ccc(Cl)cc3)c2cc1F (single isomer, unassigned) [Compound 108]     Hela cells  8.00 to 10.00
21  CN1CC(C(=O)Nc2ccc(F)cc2)C2(CCC(c3ccnc4ccc(F)cc34)CC2)C1 (stereo not drawn) [Compound 88]     Hela cells         < 7.00
22  O=C(Nc1ccc(Cl)cc1)C1CC12CCC(O)(c1ccnc3ccc(F)cc13)CC2 (stereo not drawn) [Compound 104]     Hela cells         < 7.00
23  Cc1cc2nccc(C3CCC4(CC3)CC4C(=O)Nc3ccc(Cl)nc3)c2cc1F (stereo not drawn) [Compound 95]     Hela cells  8.00 to 10.00
24  CN1CC(C(=O)Nc2ccc(C#N)cc2)C2(CCC(c3ccnc4ccc(F)cc34)CC2)C1 (stereo not drawn) [Compound 91]     Hela cells         < 7.00
25  Cc1cc2nccc(C3CCC4(CC3)CC4C(=O)Nc3ccnc(Cl)c3)c2cc1F (stereo not drawn) [Compound 97]     Hela cells         < 7.00
26  COc1ccc(NC(=O)C2COC23CCC(c2ccnc4ccc(F)cc24)CC3)cc1 (stereo not drawn) [Compound 53]     Hela cells   7.00 to 8.00
